Tested on: HCT-15 colon
Assay: NCI-60 one-dose screen, 48 h (100 = growth as untreated, 0 = no growth, -100 = all killed)
Details: 10 µM
This is part of a sample that, as a whole, favours compounds with a hit. Of some 83,000 tested, about 20% had one in any assay.
recorded.endpoint: growth (%)

[[record]]
compound = "C[C@H]1[C@H](OC(=O)CCC(=O)O)O[C@@H]2O[C@]3(C)CC[C@H]4[C@H](C)CC[C@@H]1[C@@]24OO3"
recorded_endpoint = "growth"
measured = 16.7

[[record]]
compound = "COc1cc(-c2csc(NC(=O)Nc3ccc(Cl)c(C(F)(F)F)c3)n2)cc(OC)c1OC"
recorded_endpoint = "growth"
measured = 10.5

[[record]]
compound = "CCNCC(=O)Nc1ccc(C(=O)OCC)cc1"
recorded_endpoint = "growth"
measured = 104

[[record]]
compound = "CCc1ccc(-c2ccc(-n3nc(C)c4c(N)nc(Cc5ccccc5)nc43)cc2)cc1"
recorded_endpoint = "growth"
measured = 60.6

[[record]]
compound = "CC(=O)OC1C=CC(OC(C)=O)O1 (stereo unspecified)"
recorded_endpoint = "growth"
measured = 95.4

[[record]]
compound = "Cc1c(Cl)cccc1NC(=O)CN1CCOCC1"
recorded_endpoint = "growth"
measured = 99


* * *

System: KM12 colon
Test: NCI-60 one-dose screen, 48 h (100 = growth as untreated, 0 = no growth, -100 = all killed)
Conditions: 10 µM
About 83,000 compounds went through this panel and 20% of them were active in at least one assay; those are over-represented in the sample as a whole.
Catalogue of growth readings, one per entry.
recorded.endpoint: growth (%)

[[record]]
molecule = "CCOC(=O)c1cc(C(=O)c2cc(OC)cc(OC)c2)n2ncc3ccccc3c12"
assayed_system = "KM12 colon"
readout_units = "%"
measured = 25.9

[[record]]
molecule = "Cc1ccc(-c2c3c(N)nc(-c4cccnc4)nc3nc3c2c(C)nn3-c2ccccc2)cc1"
assayed_system = "KM12 colon"
readout_units = "%"
measured = 97.1

[[record]]
molecule = "CNC(=O)c1cn2c3c(c(N4CCN(C)CC4)c(F)cc3c1=O)OC[C@@H]2C"
assayed_system = "KM12 colon"
readout_units = "%"
measured = 100

[[record]]
molecule = "c1ccc(CSc2ncccc2-c2nnc(SCCN3CCOCC3)o2)cc1"
assayed_system = "KM12 colon"
readout_units = "%"
measured = 107

[[record]]
molecule = "Cc1ccc(-n2c(C)nn3c(=O)c4c5c(sc4nc23)CN(C)CC5)cc1"
assayed_system = "KM12 colon"
readout_units = "%"
measured = 96

[[record]]
molecule = "CCOC(=O)C1C(C(=O)OCC)C2C(=O)C3C(C(=O)OCC)C(C(=O)OCC)C3C(=O)C12 (stereo not given)"
assayed_system = "KM12 colon"
readout_units = "%"
measured = 109

[[record]]
molecule = "CC(C)C1=C(O)C2=C(C(=O)C1=O)[C@@]1(C)CCCC(C)(C)[C@@H]1CC2"
assayed_system = "KM12 colon"
readout_units = "%"
measured = 52

[[record]]
molecule = "O=C1NC(=O)c2c(CCCSc3nc4ccccc4c(=O)n3CCc3ccccc3)cccc21"
assayed_system = "KM12 colon"
readout_units = "%"
measured = 100

[[record]]
molecule = "C#CC(C)(O)[C@@H]1C[C@H](CC(=O)O)C1(C)C (stereo not given in full)"
assayed_system = "KM12 colon"
readout_units = "%"
measured = 108

[[record]]
molecule = "CN(C)CCC1(c2ccccc2)CCN(C)C1=O (stereo not given)"
assayed_system = "KM12 colon"
readout_units = "%"
measured = 103


* * *

Catalogue of growth readings, one per entry.
System: U251 CNS
Assay: NCI-60 one-dose screen, 48 h (100 = growth as untreated, 0 = no growth, -100 = all killed)
Conditions: 10 µM
The panel holds about 83,000 compounds, 20% with a hit somewhere; the sample as a whole holds those more often.
recorded.endpoint: growth (%)

[[record]]
compound = "O=C1/C(=C/c2ccc([N+](=O)[O-])s2)Oc2cc(Cl)ccc21"
recorded_endpoint = "growth"
measured = -58

[[record]]
compound = "COc1ccc(-c2n[nH]nc2-c2cc(OC)c3c(c2OC)OCO3)cc1"
recorded_endpoint = "growth"
measured = 13.8

[[record]]
compound = "Cc1ccccc1N1C(=O)c2cc(S(N)(=O)=O)c(Cl)cc2NC1C (stereo unspecified)"
recorded_endpoint = "growth"
measured = 105

[[record]]
compound = "Nc1ncc(-c2cnn(C3CCNCC3)c2)cc1-c1nc2ccccc2o1"
recorded_endpoint = "growth"
measured = 13.1

[[record]]
compound = "COC(=O)c1c[nH]c2cc(OC(C)C)c(OC(C)C)cc2c1=O"
recorded_endpoint = "growth"
measured = 6.2

[[record]]
compound = "COc1ccc(NC(=O)C2CC3C=CC2C3)c([N+](=O)[O-])c1 (stereo unspecified)"
recorded_endpoint = "growth"
measured = 98.4


* * *

Tested on: SNB-19 CNS
Assay: NCI-60 one-dose screen, 48 h (100 = growth as untreated, 0 = no growth, -100 = all killed)
Conditions: 10 µM
The panel holds about 83,000 compounds, 20% with a hit somewhere; the sample as a whole holds those more often.
Class boundaries, taken from values of growth, are as follows: Low: < 40%; Mid: ≥ 40% and < 90%; High: ≥ 90%

[[record]]
compound = "CCCN(CCC)C(=O)[C@H](CC)[C@@H]1CC[C@@H](C)[C@@H]([C@H](C)[C@@H](O)[C@@H](C)C(=O)[C@H](CC)C2O[C@]3(C=C[C@@H](O)[C@]4(CC[C@@](C)([C@H]5CC[C@](O)(CC)[C@H](C)O5)O4)O3)[C@H](C)C[C@@H]2C)O1 (stereo partly specified)"
class_label = "Low"

[[record]]
compound = "Cc1ccc(C)c(COc2cc(NC(=O)c3ccc4c(c3)OCO4)ccc2N(C)S(C)(=O)=O)c1"
class_label = "Low"

[[record]]
compound = "COc1ccc(-c2n[nH]nc2-c2cc(OC)c(OC)c(OC)c2)cc1"
class_label = "Mid"

[[record]]
compound = "Nc1nccc(OCCO)n1"
class_label = "High"

[[record]]
compound = "N#Cc1c(-c2ccc(Cl)cc2)n(O)c2ccccc12"
class_label = "Low"

[[record]]
compound = "O=C(Cn1cc(CO)nn1)Nc1nc2ccccc2s1"
class_label = "High"

[[record]]
compound = "O=[N+]([O-])c1cc(Cl)cc(Cl)c1O"
class_label = "High"

[[record]]
compound = "CCOC(=O)C1=CSC2=NC3=C(CCC/C3=C\\c3cc(OC)c(OC)c(OC)c3)C(c3cc(OC)c(OC)c(OC)c3)N12 (stereo unspecified)"
class_label = "Mid"

[[record]]
compound = "O=C(/C=C/C=C/c1c(C2CC2)nc2ccccc2c1-c1ccc(F)cc1)c1cccs1"
class_label = "Mid"


* * *

System: RXF 393 renal
Assay: NCI-60 one-dose screen, 48 h (100 = growth as untreated, 0 = no growth, -100 = all killed)
Conditions: 10 µM
Compounds without any hit were thinned out: in the full panel of roughly 83,000, 20% have a hit.
growth of 90% or higher: Satisfied. Under 90%: Not satisfied.

[[record]]
molecule = "CN(C)c1nc(N)c2nccnc2n1"
class_label = "Satisfied"

[[record]]
molecule = "Cc1c2c(nn1C(=O)c1nn(-c3ccc(Cl)cc3)cc1O)-c1ccccc1CC2"
class_label = "Not satisfied"

[[record]]
molecule = "N#CC1=CC2CN(Cc3ccccc3)C1C1C(=O)N(c3ccccc3)C(=O)C21 (stereo not given)"
class_label = "Satisfied"

[[record]]
molecule = "Cc1cc(CSc2ccccc2C(=O)N2CC=C(c3ccccc3)CC2)on1"
class_label = "Satisfied"

[[record]]
molecule = "Clc1ccc(Cc2ccncc2)cc1"
class_label = "Satisfied"

[[record]]
molecule = "CC(=O)OC/C=C(/C)C[P+](c1ccccc1)(c1ccccc1)c1ccccc1"
class_label = "Satisfied"

[[record]]
molecule = "Fc1ccc(C(c2ccc(F)cc2)C(Cl)Cl)cc1"
class_label = "Not satisfied"

[[record]]
molecule = "CCc1ccc(-c2ccc(-n3nc(C)c4c(N)nc(Cc5ccccc5)nc43)cc2)cc1"
class_label = "Not satisfied"

[[record]]
molecule = "O=C(CN(C1CCCCC1)C1CCCCC1)Nc1ccc(S(=O)(=O)c2ccc(NC(=O)CN(C3CCCCC3)C3CCCCC3)cc2)cc1"
class_label = "Not satisfied"

[[record]]
molecule = "COc1ccc(/C=C/C(=O)C(=O)/C=C/c2ccc(OC)c(OC)c2)cc1OC"
class_label = "Not satisfied"


* * *

Tested on: HCT-15 colon
Assay: NCI-60 one-dose screen, 48 h
Settings: 10 µM
Description: Growth inhibition of the HCT-15 human tumor cell line is measured as a screen for anti-cancer activity. Cells are grown in 96 well plates and exposed to the test compound for 48 hours. Compounds are tested at a single concentration, which is 10^-5 M for most compounds. The reported endpoint is percent growth (GI% or GIPRCNT), where numbers from 0 - 100% represent growth inhibition, and numbers from -100% - 0 represent cell death. For example, a value of 40 represents 60% growth inhibition. […]
The panel holds about 83,000 compounds, 20% with a hit somewhere; the sample as a whole holds those more often. Activity calls are given as the source filed them. How the source made its calls: active means growth percent below 10; inactive means the rest.
Possible outcomes: t (active), f (inactive)

[[record]]
compound = "O=C1/C=C/[C@@H](O)[C@@H]2C[C@@H](O)C[C@H]2/C=C/CCC[C@H](CCc2ccc(C(F)(F)F)cc2)O1"
class_label = "t"

[[record]]
compound = "C[C@@H](O)[C@H]1C(=O)N2C(C(=O)O)=C(SC3CN[C@H](C(=O)N(C)C)C3)[C@H](C)[C@H]12 (stereo not given in full)"
class_label = "f"

[[record]]
compound = "O=C(CI)OCC(COC(=O)CI)OC(=O)CI"
class_label = "f"

[[record]]
compound = "Cc1cccc(N=Cc2ccccc2O)c1C"
class_label = "f"

[[record]]
compound = "CC(=O)O[C@@]12CO[C@@H]1C[C@H](O)[C@@]1(C)C(=O)[C@H](O)C3=C(C)[C@@H](OC(=O)[C@H](O)[C@@H](NC(=O)OC(C)(C)C)c4ccccc4)C[C@@](O)([C@@H](OC(=O)c4ccccc4)C12)C3(C)C (stereo not given in full)"
class_label = "f"

